FYI, the data here is from ChEMBL document CHEMBL4038284.

Test system: Candida albicans
protocol-summary: Growth inhibition of Candida albicans ATCC 10231 at 7.8 ug/ml incubated for 48 hrs under dark condition by broth microdilution method relative to control
Assay type: functional
condition-label: ATCC 10231, 48 h, read-out: GI
Listed next: entries and their corresponding inhibition of growth at 7.8 µg/mL.
Give your result in % as a bare value.

So what's the measured inhibition of growth at 7.8 µg/mL for this one? Cc1ccc(C2=NN(c3ccccc3)C(c3cccc(Nc4ccnc5cc(Cl)ccc45)c3)C2)cc1 (centres undefined)
2.53

And for COc1ccc(C2=NN(c3cc(Cl)cc(Cl)c3)C(c3cccc(Nc4ccnc5cc(Cl)ccc45)c3)C2)cc1 (centres undefined) ?
1.72

And for Clc1ccc(C2=NN(c3ccc(Cl)cc3)C(c3cccc(Nc4ccnc5cc(Cl)ccc45)c3)C2)cc1 (centres undefined) ?
2.96

And for COc1ccc(C2=NN(C(C)=O)C(c3cccc(Nc4ccnc5cc(Cl)ccc45)c3)C2)cc1 (centres undefined) ?
7.64

====

System: MCF7
protocol-summary: Growth inhibition of human MCF7 cells incubated for 48 hrs by sulforhodamine B assay
Format: functional
condition-label: MCF7, 48 h, read-out: LC50 (the source's name)
observed-property: CC50

Worked examples, 2 compounds total:
O=CN1N=C(c2ccc(Cl)cc2)CC1c1cccc(Nc2ccnc3cc(Cl)ccc23)c1 (stereo not drawn) = > 100 µM
COc1ccc(C2=NN(C=O)C(c3cccc(Nc4ccnc5cc(Cl)ccc45)c3)C2)cc1 (stereo not drawn) = > 100 µM

So what's the measured CC50 for this one? COc1ccc(C(=O)/C=C/c2cccc(Nc3ccnc4cc(Cl)ccc34)c2)cc1
> 100 µM

====

Listed next: entries and their corresponding CC50.
Tested on: NCI-H226
protocol-summary: Growth inhibition of human NCI-H226 cells incubated for 48 hrs by sulforhodamine B assay
Format: functional
condition-label: NCI-H226, 48 h, read-out: LC50 (the source's name)

Worked examples, 2 compounds total:
O=CN1N=C(c2ccc(Cl)cc2)CC1c1cccc(Nc2ccnc3cc(Cl)ccc23)c1 (stereo not drawn) = > 100 µM
COc1ccc(C2=NN(C=O)C(c3cccc(Nc4ccnc5cc(Cl)ccc45)c3)C2)cc1 (stereo not drawn) = > 100 µM

So what's the measured CC50 for this one? COc1ccc(C(=O)/C=C/c2cccc(Nc3ccnc4cc(Cl)ccc34)c2)cc1
> 100 µM

====

Tested on: Leishmania panamensis
protocol-summary: Antileshmanial activity against EpiR/GFP fused Leishmania panamensis MHOM/CO/87/UA140 intracellular amastigotes infected in human […] cells after 72 hrs by flow cytometric method
Assay type: functional, cell-based
condition-label: MHOM/CO/87/UA140, 72 h
Listed next: entries and their corresponding EC50.
Give your result in µg/mL as a bare value.

COc1ccc(C2=NN(c3ccc(Cl)cc3)C(c3cccc(Nc4ccnc5cc(Cl)ccc45)c3)C2)cc1 (stereo not drawn) = 27.7
COc1ccc(C2=NN(C=O)C(c3cccc(Nc4ccnc5cc(Cl)ccc45)c3)C2)cc1 (stereo not drawn) = 33.1
CC(=O)N1N=C(c2ccc(C)cc2)CC1c1cccc(Nc2ccnc3cc(Cl)ccc23)c1 (stereo not drawn) = 1.55
O=CN1N=C(c2ccc(Cl)cc2)CC1c1cccc(Nc2ccnc3cc(Cl)ccc23)c1 (stereo not drawn) = 281
COc1ccc(C2=NN(c3cc(Cl)cc(Cl)c3)C(c3cccc(Nc4ccnc5cc(Cl)ccc45)c3)C2)cc1 (stereo not drawn) = 12.6

So what's the measured EC50 for this one? Clc1ccc2c(Nc3cccc(C4CC(c5ccccc5)=NN4c4ccccc4)c3)ccnc2c1 (stereo not drawn)
22.7
